Target: 3-hydroxy-3-methylglutaryl-coenzyme A reductase (Rattus norvegicus, UniProt P51639)
Sequence (P51639 whole entry): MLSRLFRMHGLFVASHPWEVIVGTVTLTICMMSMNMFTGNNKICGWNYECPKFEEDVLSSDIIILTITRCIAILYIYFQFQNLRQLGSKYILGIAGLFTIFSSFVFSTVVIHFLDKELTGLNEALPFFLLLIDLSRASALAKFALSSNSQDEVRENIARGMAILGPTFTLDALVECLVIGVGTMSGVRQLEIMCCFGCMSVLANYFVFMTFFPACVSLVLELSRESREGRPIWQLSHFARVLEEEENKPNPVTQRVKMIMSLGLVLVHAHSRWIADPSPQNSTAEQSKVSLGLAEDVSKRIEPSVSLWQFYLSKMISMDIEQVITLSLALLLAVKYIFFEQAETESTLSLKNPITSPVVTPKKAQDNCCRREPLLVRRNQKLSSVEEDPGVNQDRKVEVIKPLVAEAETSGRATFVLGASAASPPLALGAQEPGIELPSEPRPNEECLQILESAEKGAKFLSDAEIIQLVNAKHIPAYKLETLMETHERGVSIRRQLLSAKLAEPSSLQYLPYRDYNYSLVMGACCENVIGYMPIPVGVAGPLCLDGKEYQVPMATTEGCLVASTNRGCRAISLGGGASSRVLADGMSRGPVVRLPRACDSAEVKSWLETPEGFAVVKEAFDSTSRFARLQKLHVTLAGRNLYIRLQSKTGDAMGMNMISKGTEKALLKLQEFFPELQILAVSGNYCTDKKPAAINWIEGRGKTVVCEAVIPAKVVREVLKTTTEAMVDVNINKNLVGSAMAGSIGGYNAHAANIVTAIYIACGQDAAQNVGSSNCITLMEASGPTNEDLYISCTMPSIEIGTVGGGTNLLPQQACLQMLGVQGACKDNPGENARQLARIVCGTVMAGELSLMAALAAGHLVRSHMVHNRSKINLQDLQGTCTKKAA
Assay: HMG-CoA Reductase Enzyme Assay and Inhibition of Cellular Cholesterol Synthesis Assay
Conditions: pH 7.2; 37 °C
quantity: IC50 (nM)
// note: answer is a bare numeric in nM

Output IC50 of Cc1ccccc1CN(C)C(=O)c1nn(-c2ccc(F)cc2)c(CC[C@@H](O)C[C@@H](O)CC(=O)O)c1C(C)C
2.1

Output IC50 of COCc1cccc(CNC(=O)c2nn(-c3ccc(F)cc3)c(CC[C@@H](O)C[C@@H](O)CC(=O)O)c2C(C)C)c1
0.7

Output IC50 of CC(C)c1c(C(=O)N(C)Cc2ccc(F)cc2F)nn(-c2ccc(F)cc2)c1CC[C@@H](O)C[C@@H](O)CC(=O)O
2.1

Output IC50 of CCN(Cc1ccccc1)C(=O)c1nn(-c2ccc(F)cc2)c(CC[C@@H](O)C[C@@H](O)CC(=O)O)c1C(C)C
5.5
